protocol_text: Thermal stability by differential scanning calorimetry (DSC)
Format: physicochemical
condition_context: 0.4 mg/mL in PBS, scan 20° C. to 100° C. at 60° C./hr
property_label: Fab Tm
State the value, then name its unit.

For orientation, consider the following solved cases.
INSERT INTO results (molecule, test_value) VALUES
  ('v29449: humanized anti-NaPi2b IgG1/kappa antibody H4L3; VH SEQ ID NO:27, VL SEQ ID NO:30 (antibody, V domains shown, v29449, v29453, v29457 VH (H4); v29449, v29450, v29451, v29452 VL (L3)) VH: QVQLVQSGAEVKKPGASVKMSCKASGFTFTSYNVHWVRQAPGQGLEWIAAISPGNGDLSYAQKFQGRATLTVDRSTSTAYMELSSLRSEDTAVYYCARGRTGMGAVDYWGQGTLVTVSS VL: DVQMTQSPSSLSASVGDRVTITCRASQDVYSYLNWYQQKPGKAVKLLIYYTSRLQSGVPSRFSGSGSGTDYTLTISSLQPEDIATYYCQQYNIFPWTFGQGTKLEIK', '80.0 °C'),
  ('v29455: humanized anti-NaPi2b IgG1/kappa antibody H2L2; VH SEQ ID NO:25, VL SEQ ID NO:29 (antibody, V domains shown, v29451, v29455, v29459 VH (H2); v29453, v29454, v29455, v29456 VL (L2)) VH: QVQLVQSGAEVKKPGASVKVSCKASGFTFTSYNVHWVRQAPGQGLEWIAAISPGNGDLSYAQKFQGRVTMTVDTSTSTVYMELSSLRSEDTAVYYCARGRTGMGAVDYWGQGTLVTVSS VL: DVQMTQSPSSLSASVGDRVTITCRASQDVYSYLNWYQQKPGKAVKLLIYYTSRLQSGVPSRFSGSGSGTDYTLTISSLQPEDFATYYCQQYNIFPWTFGQGTKLEIK', '81.5 °C'),
  ('v29454: humanized anti-NaPi2b IgG1/kappa antibody H3L2; VH SEQ ID NO:26, VL SEQ ID NO:29 (antibody, V domains shown, v29450, v29454, v29458 VH (H3); v29453, v29454, v29455, v29456 VL (L2)) VH: QVQLVQSGAEVKKPGASVKMSCKASGFTFTSYNVHWVRQAPGQGLEWIAAISPGNGDLSYAQKFQGRATLTVDTSTSTAYMELSSLRSEDTAVYYCARGRTGMGAVDYWGQGTLVTVSS VL: DVQMTQSPSSLSASVGDRVTITCRASQDVYSYLNWYQQKPGKAVKLLIYYTSRLQSGVPSRFSGSGSGTDYTLTISSLQPEDFATYYCQQYNIFPWTFGQGTKLEIK', '79.7 °C'),
  ('v29457: humanized anti-NaPi2b IgG1/kappa antibody H4L1; VH SEQ ID NO:27, VL SEQ ID NO:28 (antibody, V domains shown, v29449, v29453, v29457 VH (H4); v29457, v29458, v29459, v29460 VL (L1)) VH: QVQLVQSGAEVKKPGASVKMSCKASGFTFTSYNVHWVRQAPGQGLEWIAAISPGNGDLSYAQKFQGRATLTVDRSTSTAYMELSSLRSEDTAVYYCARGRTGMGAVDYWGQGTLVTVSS VL: DIQMTQSPSSLSASVGDRVTITCRASQDVYSYLNWYQQKPGKAPKLLIYYTSRLQSGVPSRFSGSGSGTDFTLTISSLQPEDFATYYCQQYNIFPWTFGQGTKLEIK', '80.5 °C'),
  ('v29458: humanized anti-NaPi2b IgG1/kappa antibody H3L1; VH SEQ ID NO:26, VL SEQ ID NO:28 (antibody, V domains shown, v29450, v29454, v29458 VH (H3); v29457, v29458, v29459, v29460 VL (L1)) VH: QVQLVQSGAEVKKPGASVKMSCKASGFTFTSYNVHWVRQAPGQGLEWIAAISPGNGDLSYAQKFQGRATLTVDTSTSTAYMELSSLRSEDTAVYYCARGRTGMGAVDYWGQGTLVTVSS VL: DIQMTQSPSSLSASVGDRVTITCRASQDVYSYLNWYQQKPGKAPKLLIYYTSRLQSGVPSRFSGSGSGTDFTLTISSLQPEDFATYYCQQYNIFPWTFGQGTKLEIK', '81.6 °C');

Give one value of Fab Tm per listed molecule.
1. v29452: humanized anti-NaPi2b IgG1/kappa antibody H1L3; VH SEQ ID NO:24, VL SEQ ID NO:30 (antibody, V domains shown, v29452, v29456, v29460 VH (H1); v29449, v29450, v29451, v29452 VL (L3)) VH: QVQLVQSGAEVKKPGASVKVSCKASGFTFTSYNVHWVRQAPGQGLEWMGAISPGNGDLSYAQKFQGRVTMTRDTSTSTVYMELSSLRSEDTAVYYCARGRTGMGAVDYWGQGTLVTVSS VL: DVQMTQSPSSLSASVGDRVTITCRASQDVYSYLNWYQQKPGKAVKLLIYYTSRLQSGVPSRFSGSGSGTDYTLTISSLQPEDIATYYCQQYNIFPWTFGQGTKLEIK
2. v29460: humanized anti-NaPi2b IgG1/kappa antibody H1L1; VH SEQ ID NO:24, VL SEQ ID NO:28 (antibody, V domains shown, v29452, v29456, v29460 VH (H1); v29457, v29458, v29459, v29460 VL (L1)) VH: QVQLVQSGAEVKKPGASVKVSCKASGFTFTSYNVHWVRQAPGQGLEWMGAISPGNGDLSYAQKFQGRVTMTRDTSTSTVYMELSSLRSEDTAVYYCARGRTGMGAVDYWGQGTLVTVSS VL: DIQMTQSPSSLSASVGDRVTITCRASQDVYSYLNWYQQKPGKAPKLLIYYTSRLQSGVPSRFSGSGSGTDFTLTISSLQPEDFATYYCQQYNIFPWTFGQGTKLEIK

Reply text:
1: 79.5 °C; 2: 80.3 °C

Entry under test: v29453: humanized anti-NaPi2b IgG1/kappa antibody H4L2; VH SEQ ID NO:27, VL SEQ ID NO:29 (antibody, V domains shown, v29449, v29453, v29457 VH (H4); v29453, v29454, v29455, v29456 VL (L2)) VH: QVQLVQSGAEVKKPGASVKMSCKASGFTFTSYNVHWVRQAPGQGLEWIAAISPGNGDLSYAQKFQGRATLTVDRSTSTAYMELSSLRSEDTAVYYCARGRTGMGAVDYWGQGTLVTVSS VL: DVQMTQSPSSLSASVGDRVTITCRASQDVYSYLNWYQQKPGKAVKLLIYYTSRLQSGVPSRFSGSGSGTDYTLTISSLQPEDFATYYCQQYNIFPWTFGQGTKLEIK . Its Fab Tm was 78.9 °C
